- MEASURED ON: Carboxy-terminal domain RNA polymerase II polypeptide A small phosphatase 1 (Homo sapiens, UniProt Q9GZU7)
- Sequence (Q9GZU7 whole entry, the tested form may be a part): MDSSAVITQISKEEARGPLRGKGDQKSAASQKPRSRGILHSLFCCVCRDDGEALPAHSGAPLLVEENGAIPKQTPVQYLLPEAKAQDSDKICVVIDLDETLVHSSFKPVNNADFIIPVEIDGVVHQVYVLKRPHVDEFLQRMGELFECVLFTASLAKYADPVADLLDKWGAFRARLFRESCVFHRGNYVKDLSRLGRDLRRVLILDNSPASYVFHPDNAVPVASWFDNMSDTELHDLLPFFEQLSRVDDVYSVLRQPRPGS
- METHOD: CTDSP1 inhibitors, concentration-response, biochemical, absorbance readout, ultra-high-throughput screen actives (AID 540297)
- Format: functional
Calls of active or inactive are those of the source.
Each entry below lists one item and its recorded IC50 value.
PROPERTY MEASURED: IC50

chemical_string=COc1ccc(Nc2nnc(-c3ccncc3)s2)cc1Cl observed_result="4.85 µM (active)"
chemical_string=CCn1c2c(c(C)[n+]1CC)C(=O)CC(C)(C)C2 observed_result="18.9 µM (active)"
chemical_string=CCCCCCNC(=O)c1cc(-c2ccco2)nc2ccccc12 observed_result="5.1 µM (active)"
chemical_string=FC(F)(F)c1ccc(Nc2nnnc3ccccc23)cc1 observed_result="8.61 µM (active)"

* * *

EC50 by entry:
- MEASURED ON: Short transient receptor potential channel 4 (Mus musculus)
- Sequence (Q9QUQ5 whole entry): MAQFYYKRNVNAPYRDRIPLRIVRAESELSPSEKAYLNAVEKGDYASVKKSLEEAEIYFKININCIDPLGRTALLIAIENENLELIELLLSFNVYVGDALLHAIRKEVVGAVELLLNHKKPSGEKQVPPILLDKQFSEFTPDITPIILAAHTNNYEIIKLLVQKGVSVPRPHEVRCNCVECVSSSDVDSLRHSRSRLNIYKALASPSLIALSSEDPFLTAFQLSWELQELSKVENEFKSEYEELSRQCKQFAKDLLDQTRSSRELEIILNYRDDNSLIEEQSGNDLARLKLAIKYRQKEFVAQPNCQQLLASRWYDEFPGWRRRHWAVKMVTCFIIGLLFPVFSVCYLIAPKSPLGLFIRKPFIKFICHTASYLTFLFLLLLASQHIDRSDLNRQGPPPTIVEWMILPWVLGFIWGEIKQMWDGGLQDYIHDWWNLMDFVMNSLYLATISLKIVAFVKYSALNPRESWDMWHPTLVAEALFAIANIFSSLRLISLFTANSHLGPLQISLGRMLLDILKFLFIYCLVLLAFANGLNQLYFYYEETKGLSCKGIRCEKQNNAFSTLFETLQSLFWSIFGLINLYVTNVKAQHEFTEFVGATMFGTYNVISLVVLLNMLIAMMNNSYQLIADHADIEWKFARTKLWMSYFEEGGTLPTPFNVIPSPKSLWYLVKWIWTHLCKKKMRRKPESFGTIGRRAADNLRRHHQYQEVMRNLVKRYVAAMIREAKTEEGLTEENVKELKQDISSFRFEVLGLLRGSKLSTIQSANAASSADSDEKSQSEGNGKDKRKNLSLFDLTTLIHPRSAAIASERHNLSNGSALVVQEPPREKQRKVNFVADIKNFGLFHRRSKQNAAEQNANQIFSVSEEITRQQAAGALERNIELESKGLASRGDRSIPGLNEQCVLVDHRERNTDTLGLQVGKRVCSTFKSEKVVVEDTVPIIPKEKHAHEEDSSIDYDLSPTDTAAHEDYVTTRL
- METHOD: calcium entry via TRPC4 opening agents – cell-based, HEK293 TRPC4/mu-opioid, Fluo-4 calcium, dose response (AID 434937)
- Format: functional
Calls of active or inactive are those of the source.
PROPERTY MEASURED: EC50

chemical_string=O=C(NCCc1c[nH]cn1)c1ccc(-c2ccccc2)cc1 property_measured=EC50 observed_result="5.96 µM (active)"
chemical_string=Cc1ccc(C)c(S(=O)(=O)N2CCN(C(=O)CCc3nc(O)c4ccccc4n3)CC2)c1 property_measured=EC50 observed_result="4.73 µM (active)"
chemical_string=COC(=O)c1cc(N2CCNCC2)nc2ccccc12 property_measured=EC50 observed_result="1.19 µM (active)"
chemical_string=CCc1nc(NCCc2ccccn2)c2nnn(Cc3ccccc3F)c2n1 property_measured=EC50 observed_result="2.66 µM (active)"

* * *

- MEASURED ON: UniProt P21554
- Sequence (P21554 whole entry): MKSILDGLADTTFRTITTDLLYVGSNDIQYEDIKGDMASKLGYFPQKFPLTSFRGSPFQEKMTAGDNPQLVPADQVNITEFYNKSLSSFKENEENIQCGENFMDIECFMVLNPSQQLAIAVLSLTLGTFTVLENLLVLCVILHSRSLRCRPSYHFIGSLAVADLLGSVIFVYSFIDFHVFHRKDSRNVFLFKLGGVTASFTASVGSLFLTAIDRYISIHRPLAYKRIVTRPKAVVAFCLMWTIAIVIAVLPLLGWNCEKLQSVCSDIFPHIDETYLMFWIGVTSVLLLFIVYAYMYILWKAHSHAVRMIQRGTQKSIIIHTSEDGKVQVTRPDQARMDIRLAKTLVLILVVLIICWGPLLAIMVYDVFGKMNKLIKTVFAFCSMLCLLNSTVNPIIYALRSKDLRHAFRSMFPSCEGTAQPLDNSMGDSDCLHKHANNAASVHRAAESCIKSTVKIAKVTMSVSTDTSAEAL
- METHOD: SAR analysis of antagonists of the Cannabinoid Receptor 1 using an Image-Based Assay - Set 4. [Related pubchem assays (depositor defined):AID2013, AID2026]
- Type: functional
The source made the active and inactive calls.
The reader will find reported IC50 values listed item by item below.
PROPERTY MEASURED: IC50

chemical_string=Cc1ccc(-c2cc(C(=O)Nc3ccc(S(=O)(=O)Nc4cc(C)on4)cc3)c3ccccc3n2)c(C)c1 property_measured=IC50 observed_result="9140 nM (active)"
chemical_string=CCOC(=O)c1cc2c(=O)n3ccccc3nc2n(Cc2ccccc2)c1=N property_measured=IC50 observed_result="69 nM (active)"
chemical_string=Cc1nc(N2CCN(C(=O)c3ccc4c(c3)OCCO4)CC2)c2c3c(sc2n1)CCCC3 property_measured=IC50 observed_result="3360 nM (active)"
chemical_string=CCN(CC)S(=O)(=O)c1ccc(NC(=O)c2cc(-c3ccccc3)nc3ccccc23)cc1 property_measured=IC50 observed_result="352 nM (active)"

* * *

- MEASURED ON: Alkaline phosphatase, tissue-nonspecific isozyme (Homo sapiens, UniProt P05186)
- Sequence (P05186 whole entry): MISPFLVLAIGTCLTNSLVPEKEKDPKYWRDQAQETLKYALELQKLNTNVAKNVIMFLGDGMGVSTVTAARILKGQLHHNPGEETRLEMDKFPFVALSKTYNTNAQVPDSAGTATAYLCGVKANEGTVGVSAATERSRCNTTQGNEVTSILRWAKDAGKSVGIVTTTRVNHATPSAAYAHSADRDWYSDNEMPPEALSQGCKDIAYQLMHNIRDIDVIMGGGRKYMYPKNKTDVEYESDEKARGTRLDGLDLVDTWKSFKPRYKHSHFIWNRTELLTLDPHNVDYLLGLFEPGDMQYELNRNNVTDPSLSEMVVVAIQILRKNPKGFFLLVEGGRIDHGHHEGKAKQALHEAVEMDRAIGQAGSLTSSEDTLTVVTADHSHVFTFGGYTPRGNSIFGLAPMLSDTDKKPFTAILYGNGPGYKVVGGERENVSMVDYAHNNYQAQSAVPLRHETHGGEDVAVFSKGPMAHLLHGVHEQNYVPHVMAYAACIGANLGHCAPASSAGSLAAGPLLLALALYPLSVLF
- METHOD: potency against alkaline phosphatase TNAP – biochemical, luminescent, dose response, SAR follow-up (AID 1056)
Calls of active or inactive are those of the source.
Possible outcomes: 1 (yes) (active), 0 (no) (inactive)

chemical_string=Cc1ccc(S(=O)(=O)Nc2ccc3ccccc3c2)cc1 class="0 (no)"
chemical_string=Cc1ccc(-c2nnc(SCC(=O)c3ccc(O)c(O)c3)n2-c2ccc(Cl)cc2)cc1 class="0 (no)"
chemical_string=O=C(NC1(C(F)(F)F)Oc2ccccc2O1)c1ccc(Cl)cc1 class="0 (no)"
chemical_string=O=S(=O)(Nc1cnc2ccccc2c1)c1ccc(Br)cc1OC(F)(F)F class="1 (yes)"

* * *

- MEASURED ON: Heat shock factor protein 1 (Mus musculus, UniProt P38532)
- Sequence (P38532 whole entry): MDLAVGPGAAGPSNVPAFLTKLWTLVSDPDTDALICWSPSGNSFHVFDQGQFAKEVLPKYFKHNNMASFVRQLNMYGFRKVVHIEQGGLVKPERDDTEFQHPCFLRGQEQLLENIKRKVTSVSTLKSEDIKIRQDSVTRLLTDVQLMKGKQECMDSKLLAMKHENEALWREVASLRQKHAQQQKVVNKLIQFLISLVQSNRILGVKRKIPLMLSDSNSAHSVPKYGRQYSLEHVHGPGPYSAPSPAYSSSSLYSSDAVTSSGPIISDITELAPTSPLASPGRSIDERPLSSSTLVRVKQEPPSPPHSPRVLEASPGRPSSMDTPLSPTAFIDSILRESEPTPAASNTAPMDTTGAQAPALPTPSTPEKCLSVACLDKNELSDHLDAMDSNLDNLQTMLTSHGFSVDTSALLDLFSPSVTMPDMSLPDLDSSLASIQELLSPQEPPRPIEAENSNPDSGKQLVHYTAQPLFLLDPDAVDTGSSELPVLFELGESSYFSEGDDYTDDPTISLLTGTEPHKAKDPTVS
- METHOD: decrease of HSF1-responsive luciferase luminescence – cell-based, NIH3T3, dose retest, confirmation (AID 2382);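 further: NIH3T3 fibroblasts with HSF1-driven luciferase reporter stressed by proteasome inhibitor MG132; luminescence from HSF1-driven luciferase expression after 8 hours of MG132 stress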
- Type: functional
Active and inactive are the calls of the source.
PROPERTY MEASURED: EC50

molecule=CCCNS(=O)(=O)c1ccc(OCC(=O)N2CCN(C)CC2)cc1 observed_result="> 195 µM (not active)"
molecule=CN(C(=O)COC(=O)c1cc(O)nc2ccccc12)c1c(N)n(Cc2ccccc2)c(=O)[nH]c1=O observed_result="> 195 µM (not active)"
molecule=C[C@H]1C[C@@H](C)C(=O)[C@@H]([C@H](O)CC2CC(=O)NC(=O)C2)C1 observed_result="0.66 µM (active)"
molecule=CCOc1ccc(-c2nc(CSCC(=O)N3CCN(c4cccc(OC)c4)CC3)c(C)o2)cc1 observed_result="48 µM (active)"
molecule="CCCNC(=O)N1CCCC(C(=O)c2cccc(Cl)c2)C1 (centres undefined)" observed_result="> 195 µM (not active)"
molecule=CCOc1ccc(NC(=O)c2ccc3c(=O)n(-c4ccc(OC)cc4OC)c(=S)[nH]c3c2)cc1 observed_result="> 195 µM (not active)"
molecule="CCC(/N=c1\\cc(-c2ccc(OC)c(OC)c2)oc2ccc(C)cc12)C(=O)O (centres undefined)" observed_result="> 195 µM (not active)"
molecule=Nc1c(NC(=O)CC[n+]2ccccc2)cccc1[N+](=O)[O-] observed_result="7.93 µM (active)"
molecule="CCN1C(=O)C(CC(=O)Nc2ccc(OC)cc2)N(Cc2ccc3c(c2)OCO3)C1=S (centres undefined)" observed_result="> 195 µM (not active)"

* * *

- MEASURED ON: Polyadenylate-binding protein 1 (Homo sapiens, UniProt P11940)
- Sequence (P11940 whole entry): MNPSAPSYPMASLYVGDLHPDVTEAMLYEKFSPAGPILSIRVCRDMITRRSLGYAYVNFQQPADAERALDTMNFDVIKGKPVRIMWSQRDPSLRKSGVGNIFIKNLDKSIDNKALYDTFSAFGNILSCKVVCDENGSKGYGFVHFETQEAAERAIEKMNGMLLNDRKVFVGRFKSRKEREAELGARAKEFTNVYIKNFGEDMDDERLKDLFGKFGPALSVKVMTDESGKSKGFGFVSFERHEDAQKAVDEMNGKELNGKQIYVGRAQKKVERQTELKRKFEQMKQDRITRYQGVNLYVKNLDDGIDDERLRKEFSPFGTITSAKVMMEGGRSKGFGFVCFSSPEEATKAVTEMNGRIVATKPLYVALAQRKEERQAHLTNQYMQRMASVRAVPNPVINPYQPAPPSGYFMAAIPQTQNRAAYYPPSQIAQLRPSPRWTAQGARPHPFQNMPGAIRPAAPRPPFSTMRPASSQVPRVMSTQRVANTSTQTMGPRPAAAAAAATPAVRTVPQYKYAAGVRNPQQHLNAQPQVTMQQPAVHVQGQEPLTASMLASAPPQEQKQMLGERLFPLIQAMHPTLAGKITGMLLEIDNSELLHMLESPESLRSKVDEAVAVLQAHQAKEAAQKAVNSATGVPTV
- METHOD: MLLE binding blockers, Cy5 peptide tracer – biochemical, fluorescence polarization, Cy5-PAM2 peptide, secondary, miRNA deadenylation inhibitor project, dose response (AID 602260)
- Type: functional
- TEST CONTEXT: read-out: IC50_Mean
Calls of active or inactive are those of the source.
Measured IC50 accompanies every entry in the list below.
PROPERTY MEASURED: IC50

chemical_string=O=C(CSc1nccc(=O)[nH]1)N1CCCc2ccccc21 observed_result="> 66 µM (inactive)"
chemical_string=COC(=O)c1c(NC(=O)c2ccc(C)o2)sc2c1CCCCC2 observed_result="> 66 µM (inactive)"
chemical_string=Nc1nnnn1/N=C/c1cc(Cl)ccc1O observed_result="35.1 µM (inactive)"
chemical_string=Cc1ccnc(N2C(=O)c3cccc4c([N+](=O)[O-])ccc(c34)C2=O)c1 observed_result="> 66 µM (inactive)"

* * *

- METHOD: alpha-synuclein stem-loop luciferase translation blockers – H4 neuroglioma cells, luminescence, confirmation (AID 1988)
- Assay type: functional, cell-based
Active and inactive are the calls of the source.
PROPERTY MEASURED: EC50

chemical_string=C#Cc1ccc([C@@H]2C=C(C(=O)N3CCN(Cc4ccccc4)CC3)O[C@H](OCCCCO)C2)cc1 property_measured=EC50 observed_result="7.64 µM (active)"
chemical_string=Nc1c(C(=O)N/N=C/c2ccc(OCc3ccccc3)cc2)cnn1-c1ccccc1 property_measured=EC50 observed_result="11.9 µM (active)"
chemical_string=Cc1cc(C)n(-c2nc(NCCN(C)C)c3c4c(sc3n2)CCCC4)n1 property_measured=EC50 observed_result="8.07 µM (active)"
chemical_string=CCOc1ccc(-c2cc(C(=O)NCCCn3ccnc3)c3cc(Br)ccc3n2)cc1 property_measured=EC50 observed_result="> 120 µM (not active)"

* * *

Below, each entry is listed alongside its reported CC50.
- Test system: Vero
- METHOD: cells
- Assay type: functional
- TEST CONTEXT: Chlorocebus sabaeus
The source made the active and inactive calls.
PROPERTY MEASURED: CC50

compound=Cc1nc2ccccn2c1C(=O)/C=C/c1cccc([N+](=O)[O-])c1 property_measured=CC50 observed_result="24 µM (active)"
compound=O=C(NCCCN1CCCC1)c1ccc2c(Cl)c3c(nc2c1)CCCC3 property_measured=CC50 observed_result="> 25 µM (active)"
compound=COc1ccc(OC)c(/C=C/C(=O)c2ccc3c(c2)OCCO3)c1 property_measured=CC50 observed_result="18.8 µM (active)"
compound="CC1C(=O)N(Cc2cn(Cc3ccco3)nn2)CCS(=O)(=O)N1Cc1ccc(-c2ccccc2)cc1 (centres undefined)" property_measured=CC50 observed_result="> 25 µM (active)"

Origin of measurements: ChEMBL document CHEMBL1201862
